SYSTEM_UNDER_TEST: T1, cynomolgus TF ECD-His6 (cynomolgus monkey (Macaca fascicularis))
T1 construct: made in Expi293 cells; also called TF-His; cTF
T1 chain: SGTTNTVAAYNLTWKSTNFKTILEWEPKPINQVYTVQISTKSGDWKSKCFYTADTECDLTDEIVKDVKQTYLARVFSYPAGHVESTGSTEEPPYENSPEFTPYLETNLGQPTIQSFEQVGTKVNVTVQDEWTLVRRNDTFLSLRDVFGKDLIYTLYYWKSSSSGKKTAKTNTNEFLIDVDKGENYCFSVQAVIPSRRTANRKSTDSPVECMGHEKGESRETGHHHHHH
ASSAY_INFO: BLI (ForteBio Octet)
METRIC: Kd (nM)
Supply the numeric figure in nM, leaving out any unit text.

BINDER	METRIC	OBS_VALUE
43B (antibody, human IgG1, V domains shown, human IgG1) VH: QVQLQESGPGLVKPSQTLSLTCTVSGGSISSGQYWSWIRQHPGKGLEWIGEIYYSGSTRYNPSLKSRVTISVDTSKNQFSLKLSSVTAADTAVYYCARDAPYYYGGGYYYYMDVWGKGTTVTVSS VL: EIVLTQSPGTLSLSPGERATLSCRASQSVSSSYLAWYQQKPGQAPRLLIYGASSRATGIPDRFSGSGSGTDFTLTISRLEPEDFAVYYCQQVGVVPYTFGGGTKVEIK	Kd	3.4

Continue with the binder presented below.
// field: Kd; key: 43B7 (antibody, human IgG1, V domains shown, human IgG1) VH: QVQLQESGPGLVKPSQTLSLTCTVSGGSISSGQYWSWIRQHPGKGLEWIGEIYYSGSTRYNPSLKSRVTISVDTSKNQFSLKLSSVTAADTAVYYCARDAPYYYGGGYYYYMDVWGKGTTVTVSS VL: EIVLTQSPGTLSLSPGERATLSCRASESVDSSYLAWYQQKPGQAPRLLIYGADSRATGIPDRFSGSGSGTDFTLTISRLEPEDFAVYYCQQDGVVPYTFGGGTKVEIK ; value = 0.94
